Attribute: % inhibition Apo pol 5'
ASSAY_TARGET: UniProtKB Q8ILY1
ASSAY: Fluorescence-based high-throughput DNA polymerase assay (molecular beacon), primary screen and dose-response
Type: biochemical
DETAILS: DRC-2; 5'; concentration 40

COMPOUND: O=C(CSc1nc2ccccc2s1)Nc1ncc([N+](=O)[O-])s1 [KU0019667]
ASSAY_TARGET: UniProtKB Q8ILY1
% inhibition Apo pol 5': -86%
--
COMPOUND: Cc1ccc(C)c(CSc2nc(C3CCCCC3)c(C#N)c(=O)[nH]2)c1 [Molecule 6]
ASSAY_TARGET: UniProtKB Q8ILY1
% inhibition Apo pol 5': 63%
--
COMPOUND: Cc1ccccc1C(=O)N1CCc2c(nc3cc(-c4ccccc4)[nH]n3c2=O)C1 [Molecule 41]
ASSAY_TARGET: UniProtKB Q8ILY1
% inhibition Apo pol 5': 46%
--
COMPOUND: N#Cc1c(C2CCCCC2)nc(Sc2ccc(C(F)(F)F)cc2[N+](=O)[O-])[nH]c1=O [Molecule 20]
ASSAY_TARGET: UniProtKB Q8ILY1
% inhibition Apo pol 5': 60%
--
COMPOUND: N#Cc1c(O)nc(N2CCCCC2)nc1-c1ccc2c(c1)OCO2 [KU0083146]
ASSAY_TARGET: UniProtKB Q8ILY1
% inhibition Apo pol 5': 53%
--
COMPOUND: O=C1NCCCn2cc(S(=O)(=O)Nc3ccccc3)cc21 [KU0214835]
ASSAY_TARGET: UniProtKB Q8ILY1
% inhibition Apo pol 5': 53%
--
COMPOUND: CCCCCCCCCCCC1SCC(C(=O)O)N1C(C)=O (stereo not drawn) [Molecule 72]
ASSAY_TARGET: UniProtKB Q8ILY1
% inhibition Apo pol 5': 54%
--
COMPOUND: O=c1cc(-c2ccccc2Cl)oc2c(NS(=O)(=O)c3cc(Cl)cc(Cl)c3O)ccc(O)c12 [KU0104277]
ASSAY_TARGET: UniProtKB Q8ILY1
% inhibition Apo pol 5': 63%
--
COMPOUND: O=C1Nc2ccc(I)cc2C1=Cc1cc(Br)c(O)c(Br)c1 [Molecule 27]
ASSAY_TARGET: UniProtKB Q8ILY1
% inhibition Apo pol 5': 54%

###

ASSAY_TARGET: P. falciparum apicoplast DNA polymerase (Pf-apPOL) (Plasmodium falciparum)
ASSAY: Fluorescence-based high-throughput DNA polymerase assay (molecular beacon), primary screen and dose-response
Type: biochemical
DETAILS: DRC-2; concentration 2.5; 5'

SMILES_DATA: COc1ccc(C=C2Oc3c(ccc4c3CN(Cc3ccco3)CO4)C2=O)c(OC)c1
% inhibition Apo pol 5' / %: 5
--
SMILES_DATA: O=C(Cc1cccs1)N1CCN(c2nc(CN3CCOCC3)cs2)CC1
% inhibition Apo pol 5' / %: 8
--
SMILES_DATA: O=C1c2ccccc2C(=O)c2c1oc1c3c(ccc21)OCN(C1CCCC1)C3
% inhibition Apo pol 5' / %: 16
--
SMILES_DATA: O=C(O)c1nc(-c2ccccc2)nc2c1OCO2
% inhibition Apo pol 5' / %: 13

###

Listing: % inhibition T4 70' 80 of selected compounds
ASSAY_TARGET: bacteriophage T4 DNA polymerase (Enterobacteria phage T4, UniProt P04415)
Construct: made in house
Sequence (P04415 whole entry): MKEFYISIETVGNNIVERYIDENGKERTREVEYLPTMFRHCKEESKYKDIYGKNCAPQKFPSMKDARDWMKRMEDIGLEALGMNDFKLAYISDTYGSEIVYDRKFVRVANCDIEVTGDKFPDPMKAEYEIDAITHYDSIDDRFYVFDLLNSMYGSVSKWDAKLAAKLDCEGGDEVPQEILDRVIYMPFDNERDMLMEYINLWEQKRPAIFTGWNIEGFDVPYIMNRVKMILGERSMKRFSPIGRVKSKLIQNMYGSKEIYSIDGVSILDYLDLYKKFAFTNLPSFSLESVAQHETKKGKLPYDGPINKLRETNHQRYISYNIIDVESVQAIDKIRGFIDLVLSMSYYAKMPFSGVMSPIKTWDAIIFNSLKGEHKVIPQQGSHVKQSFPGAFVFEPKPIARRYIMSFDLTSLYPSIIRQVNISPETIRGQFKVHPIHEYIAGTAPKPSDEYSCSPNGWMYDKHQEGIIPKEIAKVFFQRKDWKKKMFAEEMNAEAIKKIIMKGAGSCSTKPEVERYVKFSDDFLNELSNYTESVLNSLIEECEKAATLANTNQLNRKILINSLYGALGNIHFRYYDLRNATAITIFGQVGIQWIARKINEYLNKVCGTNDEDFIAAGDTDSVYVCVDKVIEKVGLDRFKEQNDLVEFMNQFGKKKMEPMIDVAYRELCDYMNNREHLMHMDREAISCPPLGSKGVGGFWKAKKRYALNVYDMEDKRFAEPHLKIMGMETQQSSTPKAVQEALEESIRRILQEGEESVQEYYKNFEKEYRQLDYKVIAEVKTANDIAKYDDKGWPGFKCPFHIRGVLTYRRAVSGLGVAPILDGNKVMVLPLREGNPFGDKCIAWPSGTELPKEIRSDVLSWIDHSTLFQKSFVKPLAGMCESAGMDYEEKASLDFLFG
ASSAY: Counter-screen against bacteriophage T4 DNA polymerase
Assay type: biochemical
DETAILS: DRC-1; read at 70'; concentration 80

COMPOUND: Cn1nc(-c2nnc(-c3ccccc3F)o2)c2c1CCN(C(=O)c1ccccc1Cl)C2
UNIT_TAG: %
% inhibition T4 70' 80: 28

COMPOUND: C#CC(C=CC)OC(=O)c1ccccc1C(=O)O (centres unmarked)
UNIT_TAG: %
% inhibition T4 70' 80: 16.7862

COMPOUND: CCCc1ccc(Oc2coc3cc(OC)ccc3c2=O)cc1
UNIT_TAG: %
% inhibition T4 70' 80: -10.3998

COMPOUND: O=C1CSC2=NC3=C(CCc4ccccc43)C(c3cccs3)N12 (centres unmarked)
UNIT_TAG: %
% inhibition T4 70' 80: 18.0959

COMPOUND: Cc1cccc(-c2noc(C(=O)NNC(=O)C(Cl)(Cl)Cl)n2)c1
UNIT_TAG: %
% inhibition T4 70' 80: 4.906

COMPOUND: O=C(CCc1csc(NC(=O)Nc2ccccc2)n1)Nc1nc2ccccc2s1
UNIT_TAG: %
% inhibition T4 70' 80: 32.2475

COMPOUND: CC(=O)OCC1=C(C(=O)[O-])N2C(=O)[C@@H](NC(=O)Cc3cccs3)[C@H]2SC1.[Na+]
UNIT_TAG: %
% inhibition T4 70' 80: 41.199

COMPOUND: Cc1ccsc1Cn1c(C)ccc1C
UNIT_TAG: %
% inhibition T4 70' 80: -12.9684

###

ASSAY_TARGET: P. falciparum apicoplast DNA polymerase (Pf-apPOL) (Plasmodium falciparum)
ASSAY: Fluorescence-based high-throughput DNA polymerase assay (molecular beacon), primary screen and dose-response
Type: biochemical
DETAILS: conc 5 (unit not given); 90'; DRC-2
Assign label 1 to entries whose % inhibition ApPOL 90' meets or exceeds 5%; assign label 0 to the rest.

COMPOUND: CN1CC(=Cc2ccco2)C(=O)C(=Cc2ccco2)C1
CATEGORY_LABEL: label 1

COMPOUND: CSCCC(C)(O)CNC(=O)C1CC1 (stereo not shown)
CATEGORY_LABEL: label 1

COMPOUND: O=[N+]([O-])c1cc2c(cc1CN1CCCCCC1)OCO2
CATEGORY_LABEL: label 1

COMPOUND: O=C(Nc1nnc(-c2ccno2)o1)c1ccc2ncsc2c1
CATEGORY_LABEL: label 0

COMPOUND: O=C(NNC(=O)C(F)(F)Sc1ccccc1)c1ccsc1 [Molecule 68, O=C(C(Sc1ccccc1)(F)F)NNC(=O)c1cscc1]
CATEGORY_LABEL: label 0

COMPOUND: O=C(Nc1ncc([N+](=O)[O-])s1)c1ccc2c(c1)C(=O)N(N1C(=O)c3ccccc3C1=O)C2=O
CATEGORY_LABEL: label 1

###

ASSAY_TARGET: UniProtKB Q8ILY1
ASSAY: Fluorescence-based high-throughput DNA polymerase assay (molecular beacon), primary screen and dose-response
Format: biochemical
DETAILS: 186 hits, value of the hit list (primary screen); unit not given; 90 min, 10 µM

COMPOUND: O=C(Nc1nnc(-c2ccno2)o1)c1ccc2c(c1)OCO2 [KU0171343]
DNA Pol: 40
//
COMPOUND: Cc1ncc(CSc2nc(C(C)(C)C)cs2)c(CO)c1O [KU0264007]
DNA Pol: 70
//
COMPOUND: CO/N=C(\C(=O)N[C@@H]1C(=O)N2C(C(=O)[O-])=C(CSc3nc(=O)c([O-])nn3C)CSC12)c1csc(N)n1.[Na+].[Na+] (stereo partly shown) [Molecule 83]
DNA Pol: 48
//
COMPOUND: Oc1ccc(N=Nc2ccccc2)c(O)c1 [Molecule 80, Oc1ccc(c(c1)O)N=Nc1ccccc1]
DNA Pol: 72

###

ASSAY_TARGET: P. falciparum apicoplast DNA polymerase (Pf-apPOL) (Plasmodium falciparum, UniProt Q8ILY1)
Sequence (Q8ILY1 entry or part of it): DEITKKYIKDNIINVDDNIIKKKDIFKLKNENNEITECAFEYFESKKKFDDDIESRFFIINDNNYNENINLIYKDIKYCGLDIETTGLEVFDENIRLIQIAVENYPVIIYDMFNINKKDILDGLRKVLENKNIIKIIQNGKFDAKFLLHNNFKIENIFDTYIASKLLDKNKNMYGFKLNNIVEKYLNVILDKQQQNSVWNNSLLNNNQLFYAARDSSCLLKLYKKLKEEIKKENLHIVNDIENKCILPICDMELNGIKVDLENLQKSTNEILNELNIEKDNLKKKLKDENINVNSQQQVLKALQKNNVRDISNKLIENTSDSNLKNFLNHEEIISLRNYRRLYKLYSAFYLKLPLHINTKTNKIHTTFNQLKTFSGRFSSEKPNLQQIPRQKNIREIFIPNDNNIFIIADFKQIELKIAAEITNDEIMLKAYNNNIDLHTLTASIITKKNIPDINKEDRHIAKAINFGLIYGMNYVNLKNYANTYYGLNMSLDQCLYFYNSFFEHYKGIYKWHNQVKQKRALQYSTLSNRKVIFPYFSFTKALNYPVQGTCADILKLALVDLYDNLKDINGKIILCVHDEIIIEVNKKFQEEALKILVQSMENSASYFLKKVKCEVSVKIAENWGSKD
ASSAY: Fluorescence-based high-throughput DNA polymerase assay (molecular beacon), primary screen and dose-response
Format: biochemical
DETAILS: DRC-1; concentration 40; 90'
Each item that follows carries a reported % inhibition Apol 90'.

COMPOUND: O=[N+]([O-])c1ccc(SCc2ccco2)c2cccnc12 [KU0034480]
% inhibition Apol 90': 77.8644%
//
COMPOUND: O=C(Cc1cccs1)N1CCN(c2nc(CN3CCOCC3)cs2)CC1 [Molecule 35]
% inhibition Apol 90': 83%
//
COMPOUND: CCCCCc1c2c(cc(O)c1C(=O)O)OC(=O)c1c(cc(OC)cc1C(=O)CCCC)O2 [Molecule 24]
% inhibition Apol 90': 91.3399%
//
COMPOUND: COc1ccc(C=C2Oc3c(ccc4c3CN(Cc3ccco3)CO4)C2=O)c(OC)c1 [KU0199404]
% inhibition Apol 90': 70.9348%
//
COMPOUND: Cc1cc(C)nc(Nc2nc(CC(=O)Nc3nc(-c4ccco4)cs3)cs2)n1 [Molecule 92]
% inhibition Apol 90': 85.2413%
//
COMPOUND: O=C(Cn1ccc2c(=O)[nH]ccc21)Nc1ccccc1Cl [Molecule 19, O=C(Cn1ccc2c1cc[nH]c2=O)Nc1ccccc1Cl]
% inhibition Apol 90': 91.2458%
//
COMPOUND: Oc1cccnc1/N=C/c1cc(I)cc(I)c1O [KU0073720]
% inhibition Apol 90': 85.8588%
//
COMPOUND: CCOc1ccc2cc(C3=NN(C(=O)CCC(=O)O)C(c4ccc(C)cc4)C3)c(=O)[nH]c2c1 (centres unmarked) [KU0056200]
% inhibition Apol 90': 73.3726%
//
COMPOUND: COc1cc(/C=C2\C(=O)N(c3ccc(C(=O)O)cc3)N=C2C(F)(F)F)ccc1OCC(C)C [KU0069072]
% inhibition Apol 90': 82.4517%
//
COMPOUND: Cc1ccnc(NS(=O)(=O)c2ccc(-n3cccc3)cc2)n1 [KU0034899]
% inhibition Apol 90': 80.4805%
//
COMPOUND: CCCN1COc2ccc3c(=O)c(-c4ccccc4)coc3c2C1 [KU0199556]
% inhibition Apol 90': 69.5557%
